Molecular target: Na^+ -dependent bile acid transport system (Oryctolagus cuniculus)
Construct: Preparation of brush-border membrane vesicles from the ileum of rabbits; from tissue; host or cells: brush-border membrane vesicles from the terminal small intestine (ileum) of male New Zealand rabbits
Sequence (Q28727 whole entry): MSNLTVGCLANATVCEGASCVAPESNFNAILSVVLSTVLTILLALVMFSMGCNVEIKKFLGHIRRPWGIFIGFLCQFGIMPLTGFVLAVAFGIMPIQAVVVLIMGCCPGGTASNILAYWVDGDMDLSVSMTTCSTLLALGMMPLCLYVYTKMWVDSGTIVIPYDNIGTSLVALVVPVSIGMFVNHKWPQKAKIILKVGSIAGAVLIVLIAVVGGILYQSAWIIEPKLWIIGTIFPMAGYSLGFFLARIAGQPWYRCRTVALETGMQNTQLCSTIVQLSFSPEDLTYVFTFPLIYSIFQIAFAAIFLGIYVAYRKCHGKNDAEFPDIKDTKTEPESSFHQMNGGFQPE
Experiment: Inhibition of Na^+ -dependent [^3 H]taurocholate absorption into brush-border membrane vesicles of the ileum
Type: biochemical, rabbit
Conditions: [^3 H]taurocholate absorption, rabbit ileum brush-border membrane vesicles; taurocholate 50 μM, pH 7.4, customarily 1 min; read-out: IC50
READOUT NAME: pIC50
Scale: pIC50 equals -log10([C]), with [C] in mol/L.

Look at this compound and give its reported pIC50. C[C@H](CCC(=O)O)[C@H]1CC[C@H]2[C@@H]3[C@H](O)C[C@@H]4C[C@@H](OCCNC(=O)CCC(=O)NCCCNC(=O)CC[C@@H](C)[C@H]5CC[C@H]6[C@@H]7[C@H](O)C[C@@H]8C[C@H](OCc9ccccc9)CC[C@]8(C)[C@H]7C[C@H](O)[C@]56C)CC[C@]4(C)[C@H]3CC[C@]12C [Example 191]
4.24
